B1: Homeobox protein SIX3, residues 212 to 262; numbered along this chain, O95343 (parent)
chain: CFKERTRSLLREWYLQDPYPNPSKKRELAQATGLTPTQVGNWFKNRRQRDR

variants of: B1; experiment: abundance fitness (aPCA) (normalised: wild type 0, dead -1); higher = more abundant; growth selection in yeast, the domain comes from the species named; settings: Homo sapiens
We begin with a simple list: items and their reported abundance fitness.

# MUTATIONS, abundance fitness
records = [
    ("P36H", -0.305),
    ("R26F", -0.228),
    ("G33D", -0.412),
    ("T35K", -0.726),
    ("G33C", -0.643),
    ("E27Q", -0.357),
    ("K24H", -0.219),
]
